I'd be grateful if you could share measured PDI for these entries.
- assay.procedure: Hydrodynamic diameter and colloidal stability of aggregates by dynamic light scattering
- Format: physicochemical
- measurement.parameters: 0.625 μM in PBS; sd^2/mean size^2
Provide a numeric answer; units are not to be included.

[Q] For the molecule shown here, CC1=C(/C=C/C(C)=C/C=C/C(C)=C/C=C/C=C(C)/C=C/C=C(C)/C=C/C2=C(C)C[C@@H](OC(=O)CCC(=O)O)CC2(C)C)C(C)(C)CCC1 [Compound 8, β-Cryptoxanthin succinate] , give the reported PDI.
[A] 0.0307

[Q] What value of PDI has been reported for the following molecule? COc1ccc2[nH]cc(CCNC(=O)CNC(=O)CCC(=O)OC/C(C)=C/C=C/C(C)=C/C=C/C=C(C)/C=C/C=C(C)/C=C/C3=C(C)CCCC3(C)C)c2c1 [Compound 18, 8′-Apo-β-carotenol-melatonin conjugate]
[A] 0.0397

---

- assay.procedure: Hydrodynamic diameter and colloidal stability of aggregates by dynamic light scattering
- Type: physicochemical
- measurement.parameters: 5 μM in PBS from DMSO stock, 37 °C
endpoint.label: zeta potential (mV)
Quick reminder: number only, in mV, skip the unit.

[Q] Name the recorded zeta potential for COc1ccc2[nH]cc(CCNC(=O)CNC(=O)CCC(=O)O[C@@H]3CC(C)=C(/C=C/C(C)=C/C=C/C(C)=C/C=C/C=C(C)/C=C/C=C(C)/C=C/C4=C(C)CCCC4(C)C)C(C)(C)C3)c2c1 [Compound 15, Cryptoxanthin-melatonin conjugate] .
[A] −15.7

[Q] Using the record for CC1=C(/C=C/C(C)=C/C=C/C(C)=C/C=C/C=C(C)/C=C/C=C(\C)COC(=O)CCC(=O)O)C(C)(C)CCC1 [Compound 6, 8′-Apo-β-carotenol succinate] , report its zeta potential.
[A] −27.5

[Q] Sample COc1ccc2[nH]cc(CCNC(=O)CNC(=O)CCC(=O)OC/C(C)=C/C=C/C(C)=C/C=C/C=C(C)/C=C/C=C(C)/C=C/C3=C(C)CCCC3(C)C)c2c1 [Compound 18, 8′-Apo-β-carotenol-melatonin conjugate] — what was its zeta potential?
[A] −37.5

---

- assay.procedure: Hydrodynamic diameter and colloidal stability of aggregates by dynamic light scattering
- Assay type: physicochemical
- measurement.parameters: 1.25 μM in PBS; sd^2/mean size^2
- Protocol: In contrary, all spectra gave a hypsochromic shift and loss of fine-structure when the DMSO solutions were diluted with PBS, which refers to the formation of H-type (card-pack) aggregates (Figures S1–S12). […] Size determination of aggregates and the colloidal stability of the sample dispersions were determined by dynamic light scattering measurements, where the hydrodynamic diameter of particles, and zeta potential values were collected. […]
endpoint.label: PDI
The response must contain the number and no unit.

[Q] Returns the measured PDI for the input compound. Input: CC1=C(/C=C/C(C)=C/C=C/C(C)=C/C=C/C=C(C)/C=C/C=C(\C)COC(=O)CCC(=O)O)C(C)(C)CCC1 [Compound 6, 8′-Apo-β-carotenol succinate]
[A] 0.0218

[Q] Consider the compound shown here: CC1=C(/C=C/C(C)=C/C=C/C(C)=C/C=C/C=C(C)/C=C/C=C(C)/C=C/C(=O)[C@]2(C)C[C@@H](OC(=O)CCC(=O)O)CC2(C)C)C(C)(C)C[C@H](OC(=O)CCC(=O)O)C1 [Compound 9, Capsanthin bissuccinate] What is its recorded PDI?
[A] 0.0354

[Q] # input compound: COc1ccc2[nH]cc(CCNC(=O)CNC(=O)CCC(=O)O[C@@H]3CC(C)=C(/C=C/C(C)=C/C=C/C(C)=C/C=C/C=C(C)/C=C/C=C(C)/C=C/C4C(C)=C[C@@H](OC(=O)CCC(=O)NCC(=O)NCCc5c[nH]c6ccc(OC)cc56)CC4(C)C)C(C)(C)C3)c2c1 (stereo partly drawn) [Compound 16, Lutein-bismelatonin conjugate] ; wanted: its PDI
[A] 0.0108

---

- assay.procedure: Hydrodynamic diameter and colloidal stability of aggregates by dynamic light scattering
- Format: physicochemical
- measurement.parameters: 0.3125 μM in PBS from DMSO stock, 37 °C
endpoint.label: mean size (hydrodynamic diameter) (nm)
A number alone suffices; assume nm.

[Q] Give its mean size (hydrodynamic diameter) value. Item: CC1=C(/C=C/C(C)=C/C=C/C(C)=C/C=C/C=C(C)/C=C/C=C(C)/C=C/C2=C(C)C[C@@H](OC(=O)CCC(=O)O)CC2(C)C)C(C)(C)C[C@H](OC(=O)CCC(=O)O)C1 [Compound 7, Zeaxanthin bissuccinate]
[A] 1050.00

[Q] What value of mean size (hydrodynamic diameter) has been recorded for this entry: CC1=C(/C=C/C(C)=C/C=C/C(C)=C/C=C/C=C(C)/C=C/C=C(C)/C=C/C(=O)[C@]2(C)C[C@@H](OC(=O)CCC(=O)O)CC2(C)C)C(C)(C)C[C@H](OC(=O)CCC(=O)O)C1 [Compound 9, Capsanthin bissuccinate]
[A] 241.5

[Q] # mean size (hydrodynamic diameter) lookup, item CC1=C(/C=C/C(C)=C/C=C/C(C)=C/C=C/C=C(C)/C=C/C=C(\C)COC(=O)CCC(=O)O)C(C)(C)CCC1 [Compound 6, 8′-Apo-β-carotenol succinate]
[A] 303.50

[Q] Consider the compound COc1ccc2[nH]cc(CCNC(=O)CNC(=O)CCC(=O)O[C@@H]3CC(C)=C(/C=C/C(C)=C/C=C/C(C)=C/C=C/C=C(C)/C=C/C=C(C)/C=C/C(=O)[C@]4(C)C[C@@H](OC(=O)CCC(=O)NCC(=O)NCCc5c[nH]c6ccc(OC)cc56)CC4(C)C)C(C)(C)C3)c2c1 [Compound 17, Capsanthin-dimelatonin conjugate] and give its measured mean size (hydrodynamic diameter).
[A] 24.42

---

- assay.procedure: Hydrodynamic diameter and colloidal stability of aggregates by dynamic light scattering
- Format: physicochemical
- measurement.parameters: 0.3125 μM in PBS from DMSO stock, 37 °C
With a cut-off of 20 mV, any zeta potential strictly below it is called 1; any zeta potential meeting it or above is called 0.

[Q] Bench note: check whether COc1ccc2[nH]cc(CCNC(=O)CNC(=O)CCC(=O)O[C@@H]3CC(C)=C(/C=C/C(C)=C/C=C/C(C)=C/C=C/C=C(C)/C=C/C=C(C)/C=C/C(=O)[C@]4(C)C[C@@H](OC(=O)CCC(=O)NCC(=O)NCCc5c[nH]c6ccc(OC)cc56)CC4(C)C)C(C)(C)C3)c2c1 [Compound 17, Capsanthin-dimelatonin conjugate] shows zeta potential below 20 mV
[A] 1

[Q] Lab note: zeta potential threshold 20 mV. Does this compound come in strictly under it? CC1=C(/C=C/C(C)=C/C=C/C(C)=C/C=C/C=C(C)/C=C/C=C(C)/C=C/C2=C(C)C[C@@H](OC(=O)CCC(=O)O)CC2(C)C)C(C)(C)C[C@H](O)C1 [Compound 11, Zeaxanthin monossuccinate]
[A] 0

[Q] hey, is zeta potential for COc1ccc2[nH]cc(CCNC(=O)CNC(=O)CCC(=O)OC/C(C)=C/C=C/C(C)=C/C=C/C=C(C)/C=C/C=C(C)/C=C/C3=C(C)CCCC3(C)C)c2c1 [Compound 18, 8′-Apo-β-carotenol-melatonin conjugate] lower than 20 mV or not?
[A] 1

[Q] Lab note: zeta potential threshold 20 mV. Does this compound come in strictly under it? CC1=C(/C=C/C(C)=C/C=C/C(C)=C/C=C/C=C(C)/C=C/C=C(C)/C=C/C(=O)[C@]2(C)C[C@@H](OC(=O)CCC(=O)O)CC2(C)C)C(C)(C)C[C@H](OC(=O)CCC(=O)O)C1 [Compound 9, Capsanthin bissuccinate]
[A] 0

[Q] Does CC1=C(/C=C/C(C)=C/C=C/C(C)=C/C=C/C=C(C)/C=C/C=C(\C)COC(=O)CCC(=O)O)C(C)(C)CCC1 [Compound 6, 8′-Apo-β-carotenol succinate] have zeta potential strictly under 20 mV?
[A] 1

[Q] Please let me know if CC1=C(/C=C/C(C)=C/C=C/C(C)=C/C=C/C=C(C)/C=C/C=C(C)/C=C/C2=C(C)C[C@@H](OC(=O)CCC(=O)O)CC2(C)C)C(C)(C)CCC1 [Compound 8, β-Cryptoxanthin succinate] shows zeta potential below 20 mV.
[A] 0

---

Hi there, I'd appreciate the recorded melting point for every entry that follows.

[Q] Fill in: melting point of COc1ccc2[nH]cc(CCNC(=O)CNC(=O)CCC(=O)O[C@@H]3CC(C)=C(/C=C/C(C)=C/C=C/C(C)=C/C=C/C=C(C)/C=C/C=C(C)/C=C/C(=O)[C@]4(C)C[C@@H](OC(=O)CCC(=O)NCC(=O)NCCc5c[nH]c6ccc(OC)cc56)CC4(C)C)C(C)(C)C3)c2c1 [Compound 17, Capsanthin-dimelatonin conjugate] is ___
[A] 130 to 131 °C

[Q] So what's the measured melting point for this one? COc1ccc2[nH]cc(CCNC(=O)CNC(=O)CCC(=O)O[C@@H]3CC(C)=C(/C=C/C(C)=C/C=C/C(C)=C/C=C/C=C(C)/C=C/C=C(C)/C=C/C4=C(C)C[C@@H](OC(=O)CCC(=O)NCC(=O)NCCc5c[nH]c6ccc(OC)cc56)CC4(C)C)C(C)(C)C3)c2c1 [Compound 14, Zeaxanthin-bismelatonin conjugate]
[A] 149 to 150 °C

[Q] I would be grateful if you could share the reported melting point for COc1ccc2[nH]cc(CCNC(=O)CNC(=O)CCC(=O)O[C@@H]3CC(C)=C(/C=C/C(C)=C/C=C/C(C)=C/C=C/C=C(C)/C=C/C=C(C)/C=C/C4C(C)=C[C@@H](OC(=O)CCC(=O)NCC(=O)NCCc5c[nH]c6ccc(OC)cc56)CC4(C)C)C(C)(C)C3)c2c1 (stereo partly drawn) [Compound 16, Lutein-bismelatonin conjugate] .
[A] 123 to 124 °C
